# TEST TARGET: wild-type human cardiac sodium channel, hNav1.5 (Homo sapiens, UniProt Q14524)
# Sequence (Q14524 whole entry): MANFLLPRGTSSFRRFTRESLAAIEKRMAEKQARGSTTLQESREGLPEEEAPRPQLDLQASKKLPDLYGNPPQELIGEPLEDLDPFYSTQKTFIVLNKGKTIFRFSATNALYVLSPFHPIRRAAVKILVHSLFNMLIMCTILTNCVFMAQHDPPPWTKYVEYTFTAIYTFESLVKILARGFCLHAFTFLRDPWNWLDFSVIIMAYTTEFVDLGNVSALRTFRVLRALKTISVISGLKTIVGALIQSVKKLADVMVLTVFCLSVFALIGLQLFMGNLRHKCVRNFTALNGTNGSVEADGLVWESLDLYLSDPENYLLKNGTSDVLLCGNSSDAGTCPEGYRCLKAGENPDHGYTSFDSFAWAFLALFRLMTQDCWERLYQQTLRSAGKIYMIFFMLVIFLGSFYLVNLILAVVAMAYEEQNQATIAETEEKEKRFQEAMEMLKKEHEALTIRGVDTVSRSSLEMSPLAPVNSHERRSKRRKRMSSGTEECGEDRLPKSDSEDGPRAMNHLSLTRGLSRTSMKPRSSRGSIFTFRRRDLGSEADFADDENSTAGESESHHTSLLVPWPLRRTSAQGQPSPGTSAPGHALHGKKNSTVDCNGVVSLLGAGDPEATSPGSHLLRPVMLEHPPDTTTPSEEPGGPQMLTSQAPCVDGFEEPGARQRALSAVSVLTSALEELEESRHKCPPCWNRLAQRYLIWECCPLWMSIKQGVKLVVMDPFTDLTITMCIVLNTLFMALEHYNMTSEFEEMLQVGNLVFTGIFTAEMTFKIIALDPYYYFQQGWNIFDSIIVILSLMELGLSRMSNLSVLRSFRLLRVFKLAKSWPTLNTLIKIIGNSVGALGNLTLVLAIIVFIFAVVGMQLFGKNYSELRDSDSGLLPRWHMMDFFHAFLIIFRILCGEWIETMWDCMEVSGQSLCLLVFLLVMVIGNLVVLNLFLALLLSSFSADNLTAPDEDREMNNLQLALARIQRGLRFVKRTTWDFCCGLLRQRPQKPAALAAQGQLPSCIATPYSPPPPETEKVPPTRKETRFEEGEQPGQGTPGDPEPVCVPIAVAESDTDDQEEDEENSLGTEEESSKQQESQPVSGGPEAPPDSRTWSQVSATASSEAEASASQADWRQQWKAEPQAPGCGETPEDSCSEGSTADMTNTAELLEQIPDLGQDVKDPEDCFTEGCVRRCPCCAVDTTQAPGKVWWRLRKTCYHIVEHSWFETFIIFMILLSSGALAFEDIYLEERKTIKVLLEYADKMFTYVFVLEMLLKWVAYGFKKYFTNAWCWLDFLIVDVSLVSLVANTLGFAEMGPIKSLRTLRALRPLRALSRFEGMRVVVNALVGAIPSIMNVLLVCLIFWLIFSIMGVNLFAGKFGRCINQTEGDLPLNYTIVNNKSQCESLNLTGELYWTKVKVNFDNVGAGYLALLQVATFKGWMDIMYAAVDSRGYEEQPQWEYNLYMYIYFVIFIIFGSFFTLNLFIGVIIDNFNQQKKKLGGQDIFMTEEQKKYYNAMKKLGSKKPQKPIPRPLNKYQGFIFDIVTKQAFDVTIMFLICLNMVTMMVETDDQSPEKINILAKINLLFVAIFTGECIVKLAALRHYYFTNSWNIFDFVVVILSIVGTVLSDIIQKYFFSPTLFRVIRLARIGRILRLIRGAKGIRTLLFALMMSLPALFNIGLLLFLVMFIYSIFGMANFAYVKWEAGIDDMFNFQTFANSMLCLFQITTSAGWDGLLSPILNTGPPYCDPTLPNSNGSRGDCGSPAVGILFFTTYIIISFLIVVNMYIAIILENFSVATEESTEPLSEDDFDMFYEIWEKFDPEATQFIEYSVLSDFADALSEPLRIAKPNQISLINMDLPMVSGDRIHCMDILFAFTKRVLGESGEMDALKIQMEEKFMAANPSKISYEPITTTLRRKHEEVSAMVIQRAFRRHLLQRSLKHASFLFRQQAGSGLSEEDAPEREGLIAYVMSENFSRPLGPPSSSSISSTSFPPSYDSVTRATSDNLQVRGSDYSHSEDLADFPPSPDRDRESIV
# PROCEDURE TEXT: Late INa screening assay (late sodium current, PatchXpress whole cell patch clamp)
# Format: cell-based
# MEASUREMENT CONDITIONS: compound at 10 μM; read-out: Late INa % blk
Recorded inhibition at 10 µM for the following molecules
Numeric only. Scale: %

MOLECULE	TEST TARGET	RECORDED METRIC	OBSERVED
CC1=C(C(=O)OCc2ccccc2)C(c2ccccc2F)n2nnnc2N1 (centres unmarked)	wild-type human cardiac sodium channel, hNav1.5 (Homo sapiens, UniProt Q14524)	inhibition at 10 µM	32.4
Cc1n[nH]c2c1C(c1cccc3ccccc13)C1=C(COC1=O)N2 (centres unmarked)	wild-type human cardiac sodium channel, hNav1.5 (Homo sapiens, UniProt Q14524)	inhibition at 10 µM	16.6
CC1=C(C(=O)OCc2ccccc2)C(c2ccc3ccccc3c2)n2nnnc2N1 (centres unmarked)	wild-type human cardiac sodium channel, hNav1.5 (Homo sapiens, UniProt Q14524)	inhibition at 10 µM	23.1
CC1=C(c2nnc(C)o2)C(c2cccc3ccccc23)n2nnnc2N1 (centres unmarked)	wild-type human cardiac sodium channel, hNav1.5 (Homo sapiens, UniProt Q14524)	inhibition at 10 µM	17

Pending molecule:
Prompt: Please report inhibition at 10 µM for the following molecule: CCn1c2ccccc2c2cc(C3C(C(=O)OCc4ccccc4)=C(C)Nc4nnnn43)ccc21 (centres unmarked)
Response: 35.2
